- ASSAY_SYSTEM: monoamine oxidase B (MAO-B) (Rattus norvegicus, UniProt P19643)
- Sequence (P19643 1-520): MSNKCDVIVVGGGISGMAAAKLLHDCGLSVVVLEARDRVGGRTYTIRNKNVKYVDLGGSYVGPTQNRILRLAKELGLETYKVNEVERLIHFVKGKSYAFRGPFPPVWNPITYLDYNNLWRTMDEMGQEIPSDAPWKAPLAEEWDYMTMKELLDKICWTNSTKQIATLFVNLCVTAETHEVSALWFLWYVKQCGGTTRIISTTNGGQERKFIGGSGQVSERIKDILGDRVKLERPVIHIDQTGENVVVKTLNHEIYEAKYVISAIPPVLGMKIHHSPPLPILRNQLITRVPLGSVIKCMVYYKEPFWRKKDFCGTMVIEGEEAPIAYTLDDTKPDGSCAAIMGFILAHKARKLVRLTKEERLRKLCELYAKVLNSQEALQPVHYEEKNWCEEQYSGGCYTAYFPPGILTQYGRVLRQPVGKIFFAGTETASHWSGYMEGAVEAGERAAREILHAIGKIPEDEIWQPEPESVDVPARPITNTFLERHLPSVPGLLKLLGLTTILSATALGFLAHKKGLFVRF
ASSAY_ENDPOINT: pIC50
As a rule, pIC50 stands for the negative log10 of the concentration, concentration in M.

Sample records with pIC50:
COMPOUND	ASSAY_SYSTEM	pIC50
C#CCN1CCc2ccc(OC(=O)N3CCOCC3)cc2C1 [Compound 11d]	monoamine oxidase B (MAO-B) (Rattus norvegicus, UniProt P19643)	4.73
C#CCN1CCc2ccc(OC(=O)N3CCCC3)cc2C1 [Compound 11b]	monoamine oxidase B (MAO-B) (Rattus norvegicus, UniProt P19643)	4.86
CCN(C)C(=O)Oc1ccc2c(c1)CN(CC1CC1)CC2 [Compound 12a]	monoamine oxidase B (MAO-B) (Rattus norvegicus, UniProt P19643)	4.89
O=C(Oc1ccc2c(c1)CN(CC1CC1)CC2)N1CCCC1 [Compound 12b]	monoamine oxidase B (MAO-B) (Rattus norvegicus, UniProt P19643)	4.83

Next compound, pIC50 to be filled in.
Data request: Item O=C(Oc1ccc2c(c1)CN(CC1CC1)CC2)N1CCCCC1 [Compound 12c] has what recorded pIC50?
Data returned: 4.94
